Values compiled from ChEMBL document CHEMBL3259808.

assay: Selectivity index, ratio of IC50 for African green monkey Vero cells to IC50 for Trypanosoma cruzi Sylvio X-10 amastigotes; type: toxicity, cell-based; conditions: read-out: Ratio IC50
selectivity ratio of 60 or higher: True. Under 60: False.

| molecule | assigned_category |
| --- | --- |
| Br.C=CCn1c(-c2ccc3ccccc3c2)cs\c1=N/N=C/C=C/c1ccco1 | True |
| CC1CS(=O)(=O)CCN1/N=C/c1ccc([N+](=O)[O-])o1 (stereo unspecified) [NIFURTIMOX] | True |
| O=C(Cn1ccnc1[N+](=O)[O-])NCc1ccccc1 [BENZNIDAZOLE] | True |
| Br.C=CCn1c(-c2ccccc2)cs\c1=N/N=C/C=C/c1ccco1.O | True |
| C=CCNc1nnc(-c2ccc([N+](=O)[O-])s2)s1 | False |
| C=CCn1c(-c2ccc([N+](=O)[O-])cc2)cs\c1=N/N=C/C=C/c1ccc([N+](=O)[O-])s1 | False |
| C=CCN1C(=O)CS\C1=N/N=C/C=C/c1ccc([N+](=O)[O-])s1 | True |
| O=[N+]([O-])c1ccc(/C=N/NC(=S)Nc2ccccc2)s1 | False |
| Br.C=CCn1c(-c2ccc(Cl)cc2)cs\c1=N/N=C/C=C/c1ccco1.O | True |
| C=CCn1c(-c2ccccc2)cs/c1=N\N=C\c1ccc([N+](=O)[O-])s1 | False |

====

system: Trypanosoma cruzi; assay: Antitrypanosomal activity against Trypanosoma cruzi Tulahuen 2 epimastigotes assessed as growth inhibition after 5 days; assay type: functional, organism-based; details: Trypanosoma cruzi, Tulahuen 2, 120 h
metric_name: IC50

| molecule | metric_name | measured_result |
| --- | --- | --- |
| C=CCNC(=S)N/N=C/C=C/c1cccs1 | IC50 | > 25 µM |
| O=C1CS\C(=N/N=C\C=C\C=C\c2cccs2)N1c1ccccc1 | IC50 | > 25 µM |
| C=CCN(C(C)=O)C1=NNC(c2cccs2)S1 (stereo unspecified) | IC50 | > 25 µM |
| C=CCn1c(-c2ccccc2)cs/c1=N/N=C/c1ccc([N+](=O)[O-])s1 | IC50 | 20 µM |
| C=CCn1c(-c2ccc3ccccc3c2)cs\c1=N/N=C/C=C/c1cccs1 | IC50 | > 25 µM |
| C=CCNC(=S)N/N=C/c1cc2ccccc2o1 | IC50 | > 25 µM |

====

test: Selectivity index, ratio of IC50 for human RBC to IC50 for Trypanosoma cruzi Sylvio X-10 amastigotes

| compound | Ratio IC50 |
| --- | --- |
| C=CCN1C(=O)CS\C1=N/N=C/C=C/c1ccc([N+](=O)[O-])s1 | 28 |
| CC1CS(=O)(=O)CCN1/N=C/c1ccc([N+](=O)[O-])o1 (stereo not drawn) [NIFURTIMOX] | 150 |
| C[C@@H]1[C@H](O)[C@@H](C)/C=C/C=C/C=C/C=C/C=C/C=C/C=C/[C@H](O[C@@H]2O[C@H](C)[C@@H](O)[C@H](N)[C@@H]2O)C[C@@H]2O[C@](O)(C[C@@H](O)C[C@@H](O)[C@H](O)CC[C@@H](O)C[C@@H](O)CC(=O)O[C@H]1C)C[C@H](O)[C@H]2C(=O)O [AMPHOTERICIN B] | 10 |

====

system: Trypanosoma cruzi; assay: Antitrypanosomal activity against Trypanosoma cruzi Tulahuen 2 epimastigotes assessed as growth inhibition after 5 days; type: functional, organism-based; details: Trypanosoma cruzi, Tulahuen 2, 120 h
Friendly reminder: IC50 below 5 µM is Condition met, at or above is Condition not met.

| compound | assigned_category |
| --- | --- |
| C=CCNC(=S)N/N=C/C=C/c1ccccc1 | Condition not met |
| C=CCN1C(=O)CS\C1=N/N=C/C=C/c1ccco1 | Condition not met |
| C=CCn1c(-c2ccc(N)cc2)cs\c1=N/N=C/C=C/c1ccco1 | Condition not met |
| C=CCNc1nnc(-c2ccc([N+](=O)[O-])s2)s1 | Condition not met |
| C=CCNC(=S)N/N=C/c1ccc2ccccc2c1 | Condition not met |
| C=CCN1C(=O)CS\C1=N/N=C/C=C/c1ccc([N+](=O)[O-])s1 | Condition met |
| C=CCn1c(-c2ccc([N+](=O)[O-])cc2)cs\c1=N/N=C/C=C/c1ccc([N+](=O)[O-])s1 | Condition met |
| C=CCN(C(C)=O)C1=NN(C(C)=O)C(/C=C/c2ccco2)S1 (stereo unspecified) | Condition not met |
| C=CCn1c(-c2ccccc2)cs/c1=N\N=C\c1ccco1 | Condition not met |
| CC1CS(=O)(=O)CCN1/N=C/c1ccc([N+](=O)[O-])o1 (stereo unspecified) [NIFURTIMOX] | Condition not met |
